- Test system: trypsin
- Construct: gene PRSS1
- assayProtocol: Proteolysis of peptoids and peptides by trypsin
- Assay type: in vitro ADME
- assayConditions: trypsin (isolated protease) in Tris buffer; trypsin, 10 min, 37° C., pH 8.0; read-out: % Area at 280 nm Remaining of Parent Peak by RP-HPLC
valueType: remaining at 10 min, 0.48 mg/mL (%)
Field: numeric (%). Do not append units.

Exam item: Please give the measured remaining at 10 min, 0.48 mg/mL for this compound: CC(C)CN(CC(=O)N(CC(=O)O)CC(=O)N(CC(=O)N(CCO)CC(=O)N(CCN)CC(=O)NCC(=O)O)Cc1ccccc1)C(=O)OCC1c2ccccc2-c2ccccc21
Marked response: 100

These measurements were taken from patent US6075121A.
